Where these numbers come from: paper PMC10397247

- assay_system: T1, 4H2667-bH
- T1 chain: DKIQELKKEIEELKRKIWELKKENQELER
- protocol_details: two-hybrid library CCNG1;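 further: natural log of median RNA to DNA barcode read ratio; higher means stronger binding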
readout_type: interaction score
Provide a numeric answer; units are not to be included.

Q: Returns the measured interaction score for the input binder. Input: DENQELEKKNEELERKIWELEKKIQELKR [4H1446-bH]
Ans: -0.551

Q: And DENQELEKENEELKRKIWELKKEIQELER [4H1257-bH] ?
Ans: -0.837

Q: And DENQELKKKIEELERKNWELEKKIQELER [4H1845-bH] ?
Ans: 0.349

Q: And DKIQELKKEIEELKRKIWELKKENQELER [4H2667-bH] ?
Ans: 0.801

Q: And DENQELEKKIEELERKIWELKKKNQELKR [4H1328-bH] ?
Ans: -0.993

Q: And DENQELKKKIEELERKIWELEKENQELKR [4H1828-bH] ?
Ans: 1.08

Q: And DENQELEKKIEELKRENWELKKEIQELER [4H1369-bH] ?
Ans: -0.433
